The measurements presented in this section are drawn from ChEMBL document CHEMBL5058577.

test system: U2OS; assay: Multiplex assay against U2OS; assay type: toxicity, cell-based; details: human, 24 h, 1 µM, compound concentration 1 uM, replicate 1
property name: Population Pyknosed Nuclei (%)
Kindly provide the numeric value in % only, without the unit symbol.

# count of solved cases: 4
{"columns": ["molecule", "property name", "reported value"],
 "data": [
  ["N#Cc1cc(F)cc(-c2nc(-c3ccc(F)cn3)no2)c1", "Population Pyknosed Nuclei (%)", 11],
  ["CCCCC(=O)N(Cc1ccc(-c2ccccc2-c2nnn[nH]2)cc1)[C@H](C(=O)O)C(C)C", "Population Pyknosed Nuclei (%)", 7],
  ["Cl.N=C(N)NC(=O)Cc1c(Cl)cccc1Cl [GUANFACINE HYDROCHLORIDE]", "Population Pyknosed Nuclei (%)", 10],
  ["Cc1cccc(NC(=O)CN2CCC(c3ccccn3)CC2)c1.Cl.Cl", "Population Pyknosed Nuclei (%)", 7]
]}

For reference, reported Population Pyknosed Nuclei (%) for CCCCC1=NC2(CCCC2)C(=O)N1Cc1ccc(-c2ccccc2-c2nnn[nH]2)cc1 stands at 7

For reference, reported Population Pyknosed Nuclei (%) for CC(C)c1noc(N2CCC(COc3ccc(-c4ccc(S(C)(=O)=O)cc4)nc3)CC2)n1 stands at 9

For reference, reported Population Pyknosed Nuclei (%) for NCCc1cn(S(=O)(=O)c2c(Cl)nc3sccn23)c2ccccc12.O=C(O)C(=O)O stands at 8

For reference, reported Population Pyknosed Nuclei (%) for CCCOc1ccc2[nH]cc(C3=CCNCC3)c2n1.Cl stands at 10

For reference, reported Population Pyknosed Nuclei (%) for N#Cc1c(Oc2cccc(OS(=O)(=O)CCCC(F)(F)F)c2)cccc1C(F)(F)F stands at 12

====

tested on: U2OS; assay: Multiplex assay against U2OS; assay type: toxicity, cell-based; conditions: human, 48 h, 10 µM, compound concentration 10 uM, replicate 1
property name: Population Healthy Nuclei (%)
Kindly provide the numeric value in % only, without the unit symbol.

# count of solved cases: 2
{"columns": ["molecule smiles", "property name", "unit name", "reported value"],
 "data": [
  ["CN(C)C(=O)Cn1cc(-c2ccc(-c3cncc4ccccc34)cc2)cn1", "Population Healthy Nuclei (%)", "%", 62],
  ["CC(/C=C1\\SC(=S)N(CCCC(=O)Nc2ccc(C(=O)O)c(O)c2)C1=O)=C\\c1ccccc1", "Population Healthy Nuclei (%)", "%", 68]
]}

For reference, reported Population Healthy Nuclei (%) for Cc1c(CC(=O)O)c2cccnc2n1Cc1ccc(S(C)(=O)=O)cc1C(F)(F)F stands at 73

For reference, reported Population Healthy Nuclei (%) for COc1ccccc1N1CCN(C[C@@H](C(=O)NC(C)(C)C)c2ccccc2)CC1.Cl.Cl stands at 44

For reference, reported Population Healthy Nuclei (%) for NCCc1cn(S(=O)(=O)c2c(Cl)nc3sccn23)c2ccccc12.O=C(O)C(=O)O stands at 27

For reference, reported Population Healthy Nuclei (%) for Cc1onc(-c2ccccc2Cl)c1C(=O)N(C)c1ccc(Cl)cc1 stands at 67

For reference, reported Population Healthy Nuclei (%) for CN[C@@H](C)C(=O)N[C@H](C(=O)N1CCC[C@H]1C(=O)Nc1snnc1-c1ccccc1)C1CCCCC1 stands at 22

For reference, reported Population Healthy Nuclei (%) for N#Cc1cc(F)cc(-c2nc(-c3ccc(F)cn3)no2)c1 stands at 62

For reference, reported Population Healthy Nuclei (%) for Cc1cnc(-c2cc(N3CCN(C(=O)CCS(C)(=O)=O)CC3)ncc2Cl)c(C)c1 stands at 80

For reference, reported Population Healthy Nuclei (%) for CC(C)COc1ccc(CNC(=O)N(Cc2ccc(F)cc2)C2CCN(C)CC2)cc1 stands at 19

====

tested on: Fibroblast; assay: Multiplex assay against human fibroblast; type: toxicity, cell-based; conditions: 24 h, 1 µM, compound concentration 1 uM, replicate 1
property name: Population Healthy Nuclei (%)
Answer with the value and then the unit.

# count of solved cases: 6
{"columns": ["compound", "Population Healthy Nuclei (%)"],
 "data": [
  ["Cc1cccc(NC(=O)CN2CCC(c3ccccn3)CC2)c1.Cl.Cl", "70%"],
  ["O=C(CCCc1ccccc1)Nc1nc2ccccc2c(=O)s1", "68%"],
  ["CCCCC1=NC2(CCCC2)C(=O)N1Cc1ccc(-c2ccccc2-c2nnn[nH]2)cc1 [IRBESARTAN]", "69%"],
  ["CC(=O)Nc1cccc2c1c(Sc1ccc(Cl)cc1)c(C)n2CC(=O)O [AZD1981]", "63%"],
  ["Cc1cnc(-c2cc(N3CCN(C(=O)CCS(C)(=O)=O)CC3)ncc2Cl)c(C)c1", "76%"],
  ["CC(C)(C)c1cc(NC(=O)Nc2ccc(-c3cn4c(n3)sc3cc(OCCN5CCOCC5)ccc34)cc2)no1 [QUIZARTINIB]", "72%"]
]}

For reference, reported Population Healthy Nuclei (%) for CC(/C=C1\SC(=S)N(CCCC(=O)Nc2ccc(C(=O)O)c(O)c2)C1=O)=C\c1ccccc1 stands at 72%

For reference, reported Population Healthy Nuclei (%) for C[C@H](N)COC(=O)[C@@H](CCCCN)NC(=O)Cc1c(-c2ccc3ccccc3c2)[nH]c2c1ccc1ccccc12 stands at 66%

For reference, reported Population Healthy Nuclei (%) for CN(C)C(=O)Cn1cc(-c2ccc(-c3cncc4ccccc34)cc2)cn1 stands at 73%

====

test system: U2OS; assay: Multiplex assay against U2OS; assay type: toxicity, cell-based; conditions: human, 48 h, 10 µM, compound concentration 10 uM, replicate 2
Measured Total Cell Count, listed per entry.
Just the number, please, no unit attached.

# count of solved cases: 5
{"columns": ["compound", "reported value"],
 "data": [
  ["C[C@H](N)COC(=O)[C@@H](CCCCN)NC(=O)Cc1c(-c2ccc3ccccc3c2)[nH]c2c1ccc1ccccc12", 184],
  ["Cc1onc(-c2ccccc2Cl)c1C(=O)N(C)c1ccc(Cl)cc1", 182],
  ["CCCCCC(O)/C=C/[C@H]1C(=O)CC(O)C1C/C=C\\CCCC(=O)O (stereo not given in full)", 161],
  ["COc1ccccc1N1CCN(C[C@@H](C(=O)NC(C)(C)C)c2ccccc2)CC1.Cl.Cl", 121],
  ["O=C1[C@H](Cc2ccc(O)cc2)N2C(=O)CCN(C(=O)NCc3ccccc3)[C@H]2CN1Cc1cccc2ccccc12", 111]
]}

For reference, reported Total Cell Count for Br.CS(=O)(=O)Nc1c(O)ccc2c1CCCC2C1=NCCN1 (stereo not given) stands at 152

For reference, reported Total Cell Count for Cl.NCCc1ccc(O)c(O)c1 [DOPAMINE HYDROCHLORIDE] stands at 179

For reference, reported Total Cell Count for CC(=O)Nc1cccc2c1c(Sc1ccc(Cl)cc1)c(C)n2CC(=O)O stands at 171

For reference, reported Total Cell Count for Cc1cccc(NC(=O)CN2CCC(c3ccccn3)CC2)c1.Cl.Cl stands at 198

For reference, reported Total Cell Count for CC(/C=C1\SC(=S)N(CCCC(=O)Nc2ccc(C(=O)O)c(O)c2)C1=O)=C\c1ccccc1 stands at 170

====

system: HEK-293T; assay: Multiplex assay against HEK293T; assay type: toxicity, cell-based; settings: human, 24 h, 1 µM, compound concentration 1 uM, replicate 1
property name: Population Apoptotic (%)
Answer with the value and then the unit.

# count of solved cases: 2
{"columns": ["compound", "Population Apoptotic (%)"],
 "data": [
  ["CC(=O)Nc1cccc2c1c(Sc1ccc(Cl)cc1)c(C)n2CC(=O)O [AZD1981]", "20%"],
  ["COC[C@@H](c1ccc(C(F)(F)F)cc1)N1CCN(C2(C)CCN(C(=O)c3c(C)ncnc3C)CC2)C[C@@H]1C.O=C(O)/C=C\\C(=O)O [VICRIVIROC MALEATE]", "30%"]
]}

So the reported Population Apoptotic (%) for CN1CCN(c2cc(-c3ccccc3)nc(N)n2)CC1 , on HEK-293T, turned out to be 20%

So the reported Population Apoptotic (%) for N#Cc1c(Oc2cccc(OS(=O)(=O)CCCC(F)(F)F)c2)cccc1C(F)(F)F , on HEK-293T, turned out to be 28%

So the reported Population Apoptotic (%) for CC(/C=C1\SC(=S)N(CCCC(=O)Nc2ccc(C(=O)O)c(O)c2)C1=O)=C\c1ccccc1 , on HEK-293T, turned out to be 27%

So the reported Population Apoptotic (%) for CCCOc1ccc2[nH]cc(C3=CCNCC3)c2n1.Cl , on HEK-293T, turned out to be 28%

So the reported Population Apoptotic (%) for O=C(NCCN1CCC(n2c(=O)[nH]c3cc(Cl)ccc32)CC1)c1ccc(F)cc1 [HALOPEMIDE] , on HEK-293T, turned out to be 40%

So the reported Population Apoptotic (%) for Cl.NCCc1ccc(O)c(O)c1 [DOPAMINE HYDROCHLORIDE] , on HEK-293T, turned out to be 44%

So the reported Population Apoptotic (%) for N#Cc1cc(F)cc(-c2nc(-c3ccc(F)cn3)no2)c1 , on HEK-293T, turned out to be 43%

So the reported Population Apoptotic (%) for CC(C)COc1ccc(CNC(=O)N(Cc2ccc(F)cc2)C2CCN(C)CC2)cc1 [PIMAVANSERIN] , on HEK-293T, turned out to be 33%

So the reported Population Apoptotic (%) for Br.CS(=O)(=O)Nc1c(O)ccc2c1CCCC2C1=NCCN1 (stereo not given) , on HEK-293T, turned out to be 38%

So the reported Population Apoptotic (%) for CN[C@@H](C)C(=O)N[C@H](C(=O)N1CCC[C@H]1C(=O)Nc1snnc1-c1ccccc1)C1CCCCC1 [GDC-0152] , on HEK-293T, turned out to be 30%

So the reported Population Apoptotic (%) for CCCCC(=O)N(Cc1ccc(-c2ccccc2-c2nnn[nH]2)cc1)[C@H](C(=O)O)C(C)C , on HEK-293T, turned out to be 30%

So the reported Population Apoptotic (%) for CC[C@@H](C)Nc1nc(C)nc2c(-c3ccc(OC)nc3C)c(C)nn12 [PEXACERFONT] , on HEK-293T, turned out to be 24%

So the reported Population Apoptotic (%) for COc1ccccc1N1CCN(C[C@@H](C(=O)NC(C)(C)C)c2ccccc2)CC1.Cl.Cl , on HEK-293T, turned out to be 19%

So the reported Population Apoptotic (%) for Cc1cnc(-c2cc(N3CCN(C(=O)CCS(C)(=O)=O)CC3)ncc2Cl)c(C)c1 , on HEK-293T, turned out to be 36%

So the reported Population Apoptotic (%) for CN(C)C(=O)Cn1cc(-c2ccc(-c3cncc4ccccc34)cc2)cn1 , on HEK-293T, turned out to be 47%

So the reported Population Apoptotic (%) for Cc1c(CC(=O)O)c2cccnc2n1Cc1ccc(S(C)(=O)=O)cc1C(F)(F)F [FEVIPIPRANT] , on HEK-293T, turned out to be 22%

So the reported Population Apoptotic (%) for Cc1noc(-c2ccc(-c3ccc(CC(=O)O)cc3)cc2)c1NC(=O)O[C@H](C)c1ccccc1Cl , on HEK-293T, turned out to be 22%

So the reported Population Apoptotic (%) for Cc1onc(-c2ccccc2Cl)c1C(=O)N(C)c1ccc(Cl)cc1 , on HEK-293T, turned out to be 23%
